Answer each item with its documented inhibition of growth at 10 µM.
- Tested on: TK-10
- ASSAY_METHOD_TEXT: Growth inhibition of human TK10 cells at 10^-5 M incubated for 48 hrs by sulforhodamine B assay
- Assay type: functional
- CONDITION: TK-10, 48 h, read-out: GI
Response body: numeric value in %, unit text excluded.

Enquiry: Identify measured inhibition of growth at 10 µM corresponding to CCOC(=O)CSC1=Nc2c(sc3ccc(Cl)cc23)C(c2cccc([N+](=O)[O-])c2)N1 (centres undefined)
Return: -16.2

Enquiry: Identify measured inhibition of growth at 10 µM corresponding to NNC1=Nc2c(sc3ccc(Cl)cc23)C(c2cccc([N+](=O)[O-])c2)N1 (centres undefined)
Return: -18.2

Enquiry: Identify measured inhibition of growth at 10 µM corresponding to NC(=O)CSC1=Nc2c(sc3ccc(Cl)cc23)C(c2cccc([N+](=O)[O-])c2)N1 (centres undefined)
Return: -16.6

Enquiry: Identify measured inhibition of growth at 10 µM corresponding to O=C1/C(=C\c2cccc([N+](=O)[O-])c2)Sc2ccc(Cl)cc21
Return: -12.1

Enquiry: Identify measured inhibition of growth at 10 µM corresponding to N#Cc1cnn(C2=Nc3c(sc4ccc(Cl)cc34)C(c3cccc([N+](=O)[O-])c3)N2)c1N (centres undefined)
Return: 25.1

Enquiry: Identify measured inhibition of growth at 10 µM corresponding to O=C1Nc2c(sc3ccc(Cl)cc23)C(c2cccc(Br)c2)N1 (centres undefined)
Return: -23.4

Enquiry: Identify measured inhibition of growth at 10 µM corresponding to O=C1SC2=Nc3c(sc4ccc(Cl)cc34)C(c3ccc4ccccc4c3)N2C1=O (centres undefined)
Return: -28.7

Enquiry: Identify measured inhibition of growth at 10 µM corresponding to Cc1cc(C)n(C2=Nc3c(sc4ccc(Cl)cc34)C(c3cccc([N+](=O)[O-])c3)N2)n1 (centres undefined)
Return: -12.7

Enquiry: Identify measured inhibition of growth at 10 µM corresponding to O=[N+]([O-])c1cccc(C2c3sc4ccc(Cl)cc4c3N=C3NN=C(c4cccc(F)c4)N32)c1 (centres undefined)
Return: -12.9
